Listing: KSV (Stern-Volmer quenching constant) of selected molecules
- System: pancreatic lipase (PL)
- Construct: purchased Sigma-Aldrich Co. (St. Louis, MO, USA); host or cells: porcine pancreas (tissue preparation)
- protocol.notes: Fluorescence emission spectroscopy (tryptophan fluorescence quenching of PL)
- Assay type: binding, porcine
- details: 25 °C; excitation 295 nm; 40 µM PL

{"columns": ["molecule", "target.of.assay", "KSV (Stern-Volmer quenching constant)"],
 "data": [
  ["C[C@@H]1O[C@@H](Oc2c(-c3ccc(O)c(O)c3)oc3cc(O)cc(O)c3c2=O)[C@H](O)[C@H](O)[C@H]1O [Quercitrin, quercetin-3-O-α-L-rhamnopyranoside]", "pancreatic lipase (PL)", "1.28 10^4 M^−1"],
  ["O=c1c(O)c(-c2ccc(O)cc2)oc2cc(O)cc(O)c12", "pancreatic lipase (PL)", "1.22 10^4 M^−1"],
  ["O=c1c(O)c(-c2ccc(O)c(O)c2)oc2cc(O)cc(O)c12", "pancreatic lipase (PL)", "1.00 10^4 M^−1"],
  ["O=c1c(O[C@@H]2O[C@@H](CO)[C@H](O)[C@H]2O)c(-c2ccc(O)c(O)c2)oc2cc(O)cc(O)c12 [Avicularin, quercetin-3-O-α-L-arabinofuranoside]", "pancreatic lipase (PL)", "0.56 10^4 M^−1"]
]}

----------
- System: pancreatic lipase (PL)
- Construct: purchased Sigma-Aldrich Co. (St. Louis, MO, USA); host or cells: porcine pancreas (tissue preparation)
- protocol.notes: Fluorescence emission spectroscopy (tryptophan fluorescence quenching of PL)
- Format: binding, porcine
- details: 37 °C; excitation 295 nm; 40 µM PL
Listed molecules paired with reported KSV (Stern-Volmer quenching constant)
measured.quantity: KSV (Stern-Volmer quenching constant)

{"columns": ["molecule", "target.of.assay", "result"],
 "data": [
  ["O=c1c(O[C@@H]2O[C@@H](CO)[C@H](O)[C@H]2O)c(-c2ccc(O)c(O)c2)oc2cc(O)cc(O)c12 [Avicularin, quercetin-3-O-α-L-arabinofuranoside]", "pancreatic lipase (PL)", "0.59 10^4 M^−1"],
  ["O=c1c(O)c(-c2ccc(O)cc2)oc2cc(O)cc(O)c12", "pancreatic lipase (PL)", "1.03 10^4 M^−1"],
  ["C[C@@H]1O[C@@H](Oc2c(-c3ccc(O)c(O)c3)oc3cc(O)cc(O)c3c2=O)[C@H](O)[C@H](O)[C@H]1O [Quercitrin, quercetin-3-O-α-L-rhamnopyranoside]", "pancreatic lipase (PL)", "1.32 10^4 M^−1"],
  ["O=c1c(O)c(-c2ccc(O)c(O)c2)oc2cc(O)cc(O)c12", "pancreatic lipase (PL)", "0.94 10^4 M^−1"]
]}

----------
Each record here notes measured kq (bimolecular quenching constant).
- Tested on: pancreatic lipase (PL)
- Construct: purchased Sigma-Aldrich Co. (St. Louis, MO, USA); host or cells: porcine pancreas (tissue preparation)
- protocol.notes: Fluorescence emission spectroscopy (tryptophan fluorescence quenching of PL)
- Format: binding, porcine
- details: 37 °C; calculated from KSV with τ0 = 1.59 ns
measured.quantity: kq (bimolecular quenching constant)

{"columns": ["molecule", "target.of.assay", "measured.quantity", "result"],
 "data": [
  ["O=c1c(O[C@@H]2O[C@@H](CO)[C@H](O)[C@H]2O)c(-c2ccc(O)c(O)c2)oc2cc(O)cc(O)c12 [Avicularin, quercetin-3-O-α-L-arabinofuranoside]", "pancreatic lipase (PL)", "kq (bimolecular quenching constant)", "3.71 10^12 M^−1s^−1"],
  ["O=c1c(O)c(-c2ccc(O)cc2)oc2cc(O)cc(O)c12", "pancreatic lipase (PL)", "kq (bimolecular quenching constant)", "6.48 10^12 M^−1s^−1"],
  ["O=c1c(O)c(-c2ccc(O)c(O)c2)oc2cc(O)cc(O)c12", "pancreatic lipase (PL)", "kq (bimolecular quenching constant)", "5.91 10^12 M^−1s^−1"],
  ["C[C@@H]1O[C@@H](Oc2c(-c3ccc(O)c(O)c3)oc3cc(O)cc(O)c3c2=O)[C@H](O)[C@H](O)[C@H]1O [Quercitrin, quercetin-3-O-α-L-rhamnopyranoside]", "pancreatic lipase (PL)", "kq (bimolecular quenching constant)", "8.30 10^12 M^−1s^−1"]
]}

----------
- System: pancreatic lipase (PL)
- Construct: purchased Sigma-Aldrich Co. (St. Louis, MO, USA); host or cells: porcine pancreas (tissue preparation)
- protocol.notes: Fluorescence emission spectroscopy (tryptophan fluorescence quenching of PL)
- Format: binding, porcine
- details: double-logarithmic equation
The entries below are paired with their reported KA (binding constant).

{"columns": ["compound", "unit.string", "KA (binding constant)"],
 "data": [
  ["O=c1c(O)c(-c2ccc(O)cc2)oc2cc(O)cc(O)c12 [Kaempferol]", "M⁻¹", 20700],
  ["O=c1c(O)c(-c2ccc(O)c(O)c2)oc2cc(O)cc(O)c12 [Quercetin]", "M⁻¹", 35700],
  ["C[C@@H]1O[C@@H](Oc2c(-c3ccc(O)c(O)c3)oc3cc(O)cc(O)c3c2=O)[C@H](O)[C@H](O)[C@H]1O [Quercitrin, quercetin-3-O-α-L-rhamnopyranoside]", "M⁻¹", 10000],
  ["O=c1c(O[C@@H]2O[C@@H](CO)[C@H](O)[C@H]2O)c(-c2ccc(O)c(O)c2)oc2cc(O)cc(O)c12 [Avicularin, quercetin-3-O-α-L-arabinofuranoside]", "M⁻¹", 9400]
]}

----------
- Test system: pancreatic lipase (PL)
- Construct: purchased Sigma-Aldrich Co. (St. Louis, MO, USA); host or cells: porcine pancreas (tissue preparation)
- protocol.notes: Fluorescence emission spectroscopy (tryptophan fluorescence quenching of PL)
- Type: binding, porcine
- details: 25 °C; calculated from KSV with τ0 = 1.59 ns
- Description: The fluorescence spectra of PL in the presence of the sample were measured on a SpectraMax® i3 Multi-Mode Microplate Reader (Molecular Devices) as described previously with slight modification. In brief, aliquots of the sample solution at various concentrations (0−100 µM) were added into 40 µM of PL solution. The mixture was incubated for 30 min at 25 °C and 37 °C, and the fluorescence emission spectra were measured in the range of 315−400 nm upon excitation at 295 nm. […]

{"columns": ["compound", "target.of.assay", "kq (bimolecular quenching constant)"],
 "data": [
  ["O=c1c(O)c(-c2ccc(O)c(O)c2)oc2cc(O)cc(O)c12", "pancreatic lipase (PL)", "6.29 10^12 M^−1s^−1"],
  ["O=c1c(O[C@@H]2O[C@@H](CO)[C@H](O)[C@H]2O)c(-c2ccc(O)c(O)c2)oc2cc(O)cc(O)c12 [Avicularin, quercetin-3-O-α-L-arabinofuranoside]", "pancreatic lipase (PL)", "3.52 10^12 M^−1s^−1"],
  ["C[C@@H]1O[C@@H](Oc2c(-c3ccc(O)c(O)c3)oc3cc(O)cc(O)c3c2=O)[C@H](O)[C@H](O)[C@H]1O [Quercitrin, quercetin-3-O-α-L-rhamnopyranoside]", "pancreatic lipase (PL)", "8.05 10^12 M^−1s^−1"],
  ["O=c1c(O)c(-c2ccc(O)cc2)oc2cc(O)cc(O)c12", "pancreatic lipase (PL)", "7.67 10^12 M^−1s^−1"]
]}

----------
- target.of.assay: Lipase from porcine pancreas type II (pancreatic lipase) (Sus scrofa, UniProt P00591)
- Construct: purchased Sigma-Aldrich Co. (St. Louis, MO, USA); host or cells: porcine pancreas (tissue preparation)
- Sequence (P00591 whole entry): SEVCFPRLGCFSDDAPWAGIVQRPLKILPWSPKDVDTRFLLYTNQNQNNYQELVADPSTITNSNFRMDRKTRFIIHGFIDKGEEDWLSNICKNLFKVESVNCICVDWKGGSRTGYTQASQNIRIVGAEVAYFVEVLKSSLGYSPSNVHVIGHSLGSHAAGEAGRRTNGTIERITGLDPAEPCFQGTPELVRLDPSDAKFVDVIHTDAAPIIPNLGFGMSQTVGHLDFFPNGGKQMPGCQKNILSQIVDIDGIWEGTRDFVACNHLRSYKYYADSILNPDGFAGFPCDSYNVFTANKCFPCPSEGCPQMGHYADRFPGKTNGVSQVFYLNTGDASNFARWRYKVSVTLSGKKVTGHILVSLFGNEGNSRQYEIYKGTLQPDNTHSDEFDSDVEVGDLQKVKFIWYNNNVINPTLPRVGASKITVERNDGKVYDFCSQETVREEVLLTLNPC
- protocol.notes: Pancreatic lipase inhibition assay (4-MUO substrate, fluorescence)
- Format: biochemical
- details: Lineweaver-Burk plots at 50 μM and 100 μM of compound
measured.quantity: Inhibition mode (type of inhibition)

{"columns": ["mol", "target.of.assay", "measured.quantity", "result"],
 "data": [
  ["O=c1c(O)c(-c2ccc(O)c(O)c2)oc2cc(O)cc(O)c12", "Lipase from porcine pancreas type II (pancreatic lipase) (Sus scrofa, UniProt P00591)", "Inhibition mode (type of inhibition)", "competitive inhibition"],
  ["O=c1c(O)c(-c2ccc(O)cc2)oc2cc(O)cc(O)c12", "Lipase from porcine pancreas type II (pancreatic lipase) (Sus scrofa, UniProt P00591)", "Inhibition mode (type of inhibition)", "competitive inhibition"]
]}

----------
- Tested on: pancreatic lipase (PL)
- Construct: purchased Sigma-Aldrich Co. (St. Louis, MO, USA); host or cells: porcine pancreas (tissue preparation)
- protocol.notes: Fluorescence emission spectroscopy (tryptophan fluorescence quenching of PL)
- Format: binding, porcine
- details: 37 °C; double-logarithmic equation
Reported KA (binding constant) values for the following compounds.

{"columns": ["compound", "KA (binding constant)"],
 "data": [
  ["O=c1c(O)c(-c2ccc(O)c(O)c2)oc2cc(O)cc(O)c12", "3.57 10^4 M^−1"],
  ["O=c1c(O)c(-c2ccc(O)cc2)oc2cc(O)cc(O)c12", "2.07 10^4 M^−1"],
  ["O=c1c(O[C@@H]2O[C@@H](CO)[C@H](O)[C@H]2O)c(-c2ccc(O)c(O)c2)oc2cc(O)cc(O)c12 [Avicularin, quercetin-3-O-α-L-arabinofuranoside]", "0.94 10^4 M^−1"],
  ["C[C@@H]1O[C@@H](Oc2c(-c3ccc(O)c(O)c3)oc3cc(O)cc(O)c3c2=O)[C@H](O)[C@H](O)[C@H]1O [Quercitrin, quercetin-3-O-α-L-rhamnopyranoside]", "1.00 10^4 M^−1"]
]}
